Test system: HT29 colon
measurement notes: NCI-60 one-dose screen, 48 h (100 = growth as untreated, 0 = no growth, -100 = all killed)
condition notes: 10 µM unless noted
The panel holds about 83,000 compounds, 20% with a hit somewhere; the sample as a whole holds those more often.
measure: growth (%)
Numbers only; they are read as %.

Record excerpt, results attached:
compound | growth [%]
Nc1cc(-c2c[nH]c3ccc(Br)cc23)nc2cc(-c3c[nH]c4ccc(Br)cc34)nn12 | -33.8
c1cn2c(ccc3nc(-c4cn[nH]c4)c4c(c32)CCCC4)n1 | 62.4
O=[N+]([O-])c1cc(/C=N/Nc2nc(N/N=C/c3ccc(Cl)c([N+](=O)[O-])c3)nc(N3CCCCC3)n2)ccc1Cl | 7.43

Query: For the compound "Cc1cccc(/C=C/C(=O)Nc2ncc(Cc3cccc(C)c3)s2)c1" , what growth is on record?
Response: 2.82

Query: What do you have for "CCOc1ccc(C(=O)Nc2ncc(Cc3ccc(F)cc3)s2)cc1" ?
Response: -18.2

Query: Now try "Cn1ccnc1C(=O)/C=C/c1ccc(CNC(=O)c2c(F)c(F)c(F)c(F)c2F)cc1" .
Response: 14.7

Query: Try "CC(C)(C)c1ccc(CC(=O)Nc2sc3c(c2C(N)=O)CCC(=O)C3)cc1" next.
Response: 3.3

Query: Would you mind doing "CN(C)CCN(C)c1ccc2ncc(C#Cc3cncc(C(=O)Nc4ccc(CN5CCN(C)CC5)c(C(F)(F)F)c4)c3)n2n1" as well?
Response: -66.1

---

System: OVCAR-5 ovarian
measurement notes: NCI-60 one-dose screen, 48 h (100 = growth as untreated, 0 = no growth, -100 = all killed)
condition notes: 10 µM unless noted
About 83,000 compounds went through this panel and 20% of them were active in at least one assay; those are over-represented in the sample as a whole.
Could you label it yes if measured growth is 20% or higher, and no otherwise?

Some solved cases for reference:
molecule | classification
O=C(O)c1cn(C2CC2)c2cc(N3CCN(C(=O)CN4C(=O)CSC4=O)CC3)c(F)cc2c1=O | yes
NC(=O)c1c(NC(=O)c2ccc(F)cc2F)sc2c1CCC(=O)C2 | yes
CCCn1cnc2c(c1=N)C(c1ccc(OC)cc1)c1sc3c(CC)cccc3c1O2 (centres undefined) | yes
COc1ccc(Cn2cc3c(c2-c2cc(OC)c(OC)c(OC)c2)CCc2c(CN4CCCC4)noc2-3)cc1 | yes
Cc1cccc(/C=C/C(=O)Nc2ncc(Cc3cccc(C)c3)s2)c1 | yes

Query: Record "N#Cc1c(NC(=O)c2cccc(C(F)(F)F)c2F)sc2c1CCC(=O)C2" ; criterion: growth no lower than 20%. Met?
Response: no

Query: Same for "CC1=NC2=NC(=O)/C(=C3/N=C(C)C=C(c4ccccc4)N3N)NN2C(c2ccccc2)=C1"
Response: yes

Query: Moving on to the next molecule: "COC(=O)c1ccc(NC2=C/C(=N/S(=O)(=O)c3ccc(C(=O)O)cc3)c3ccccc3C2=O)cc1"
Response: no

Query: Now the same for "N/C(=N\C(N)=N\c1nc2ccccc2s1)c1ccc2ccccc2c1"
Response: yes

---

System: RXF 393 renal
measurement notes: NCI-60 one-dose screen, 48 h
condition notes: 10 µM unless noted
Procedure: Cells are grown in 96 well plates and exposed to the test compound for 48 hours. Compounds are tested at a single concentration, which is 10^-5 M for most compounds. The reported endpoint is percent growth (GI% or GIPRCNT), where numbers from 0 - 100% represent growth inhibition, and numbers from -100% - 0 represent cell death. For example, a value of 40 represents 60% growth inhibition. A value of 0 means no net growth occurred over the course of the experiment. […]
The panel holds about 83,000 compounds, 20% with a hit somewhere; the sample as a whole holds those more often. Activity calls are given as the source filed them. The calls were made as follows: active = growth percent below 10; inactive = the rest.
The categories you may choose from are label 1 (active), label 0 (inactive)

Here's what some known entries look like.
molecule | classification
CCO/C=N/C1=C(C#N)C(c2ccc(Cl)cc2)c2sc3c(CC)cccc3c2O1 (stereo not drawn) | label 1
CCN(CC)CCn1c2ccc(O)cc2c2sc3cc(OC)ccc3c(=O)c21 | label 0
Nc1nc(-c2cccc([N+](=O)[O-])c2)c(N=Nc2ccc([N+](=O)[O-])cc2Cl)s1 | label 1

Query: Record request — test call for CCNC(=O)N1CCc2cc(OC)c(OCCc3ccc(OC)nc3)cc2C1c1ccc(C)cc1C (stereo not drawn)
Response: label 1

Query: Also, "CC(=O)c1ccc(Nc2nc(SCC(C)C)nc(-c3ccccc3)c2C#N)cc1" please.
Response: label 1

Query: Also need "COc1cc(-c2ccc3ncnc(NCc4ccccc4)c3c2)cnc1OC" , thanks.
Response: label 1

Query: Repeat for the following molecule: "O=C(Nc1nc2ccc([N+](=O)[O-])cc2s1)Nc1ccccc1Cl"
Response: label 0

Query: Do the same for "C/C(=N\O)[C@H]1C[C@]23CC[C@]4(C)[C@H](CC[C@@H]5[C@@]6(C)CC/C(=N/O)C(C)(C)[C@@H]6CC[C@]54C)[C@H]2[C@H](C)C1(C)OC3" please
Response: label 0

Query: Similarly, COc1cc2nc(Cl)nc(Nc3cccc(C4=Nc5c(N)nc(N)nc5NC(c5ccc(Cl)cc5)C4)c3)c2cc1OC (stereo not drawn) ?
Response: label 0

---

System: SW-620 colon
measurement notes: NCI-60 one-dose screen, 48 h (100 = growth as untreated, 0 = no growth, -100 = all killed)
condition notes: 10 µM unless noted
About 83,000 compounds went through this panel and 20% of them were active in at least one assay; those are over-represented in the sample as a whole.
Classify by measured growth: 1 if it is equal to or exceeds 30%, -1 if it is smaller.

Illustrative cases are given below, each with its answer.
compound | measured on | classification
N#Cc1cccc(CN2CCC3=C(C2)C(=O)N(Cc2ccc(Cl)cc2)C2=NCCN23)c1 | SW-620 colon | 1
O=C(NNc1nc2cc(F)ccc2n2c(CN3CC4CNCC4C3)ccc12)c1cnccn1 (stereo not given) | SW-620 colon | -1
C#Cc1nc(C(C)=O)cs1 | SW-620 colon | 1

Query: Item CCN(CC)c1ccc2c(c1)Oc1nc(N)c(C#N)c(N)c1C2Sc1ccc(F)cc1 (stereo not given) with growth of 30% or above?
Response: -1

Query: For "C#C[C@]1(O)CC[C@H]2[C@@H]3CC=C4c5sc(-c6cccc(O)c6)nc5CC[C@]4(C)[C@H]3CC[C@@]21C" then?
Response: -1

Query: Next record, please: "CC(C)c1ccc(NCc2cn(-c3ccc(C(=O)O)cc3)nc2-c2cc(C(F)(F)F)cc(C(F)(F)F)c2)cc1"
Response: 1

---

Test system: HS 578T breast
measurement notes: NCI-60 one-dose screen, 48 h (100 = growth as untreated, 0 = no growth, -100 = all killed)
condition notes: 10 µM unless noted
This is part of a sample that, as a whole, favours compounds with a hit. Of some 83,000 tested, about 20% had one in any assay.
growth for assorted compounds
Hi! Could you send only the number? It should be in %, unit omitted.

# annotated cases, reported growth shown
compound | growth, %
CCNC(=O)N1CCc2cc(OC)c(OCCc3ccc(OC)cc3)cc2C1c1ccc(OC)cc1C (stereo not given) | 1.32
COc1cc(OC)c(S(N)(=O)=O)cc1C(C)=O | 112
COc1ccc([C@@H]2c3[nH]c4ccccc4c3C[C@H]3C(=O)N(C4CCN(CC5CCCCC5)CC4)CC(=O)N23)c(OC)c1 | 68.9
Cc1ccc(C2=NN(C)C(=O)C3(CCCC3)C2)cc1 | 109
COc1ccc(-c2nc(C(Cl)Cl)nc3cc(-c4ccccc4)nn23)cc1 | -6.94
COc1ccc([C@@H]2[C@@H](O)C(=O)N2c2cc(OC)c(OC)c(OC)c2)cc1F | -2.79
O=S(=O)(NC1c2ccccc2C[C@H]1O)c1ccc(Cl)cc1Cl (stereo not given in full) | 93.7
CCO/C=N/C1=C(C#N)C(c2ccc(OC)cc2)c2sc3c(C)cccc3c2O1 (stereo not given) | 16.6

Query: Quick one: growth of "NS(=O)(=O)c1ccc(Nc2nc(N/N=C/c3c[nH]c4ccccc34)nc(Nc3ccccc3)n2)cc1" ?
Response: 42.2

Query: # repeat for "CN(C)C(=O)c1cc(-c2ccc3ncnc(NCc4ccccc4)c3c2)cnc1N"
Response: 81.8

Query: And the next one, "CCCCNNC(=O)c1ccc(-c2cccc(F)c2F)cc1" ?
Response: 41.2

---

The entries below come with measured growth values attached.
System: MOLT-4 leukemia
measurement notes: NCI-60 one-dose screen, 48 h (100 = growth as untreated, 0 = no growth, -100 = all killed)
condition notes: 10 µM unless noted
Method: Growth inhibition of the MOLT-4 human tumor cell line is measured as a screen for anti-cancer activity. Cells are grown in 96 well plates and exposed to the test compound for 48 hours. Compounds are tested at a single concentration, which is 10^-5 M for most compounds. The reported endpoint is percent growth (GI% or GIPRCNT), where numbers from 0 - 100% represent growth inhibition, and numbers from -100% - 0 represent cell death. For example, a value of 40 represents 60% growth inhibition. […]
This is part of a sample that, as a whole, favours compounds with a hit. Of some 83,000 tested, about 20% had one in any assay.
Your answer should be a plain number; it is taken to be in %.

// worked examples, growth included
compound | growth [%]
O=C(NCCn1ccnc1)c1ccc(-c2nc3ccc4[nH]ncc4c3c3c2CCCC3)cc1 | 29.1
COc1cc2nc(Cl)nc(Nc3cccc(C4=Nc5c(N)nc(N)nc5NC(c5ccccc5)C4)c3)c2cc1OC (configuration not stated) | 54.5
CCNC(=O)N1CCc2cc(OC)c(OCCc3ccc(OC)cc3)cc2C1c1ccc([N+](=O)[O-])cc1C (configuration not stated) | 26.1
COc1ccc([C@H]2c3[nH]c4ccccc4c3C[C@H]3C(=O)N(C4CCN(Cc5c(Cl)cccc5Cl)CC4)CC(=O)N23)c(OC)c1 | 86.2
Clc1ccc(N/N=c2/oc3ccccc3cc2-c2cc3ccccc3[nH]2)cc1 | 69.6
NC(N)=Nc1ccc(Nc2cccc(Oc3ccc(Cl)c(C(F)(F)F)c3)c2)cn1 | 0.616

Query: Any idea what its growth is? The compound is "N#Cc1c(NC(=O)c2cccc(C(F)(F)F)c2F)sc2c1CCC(=O)C2"
Response: -0.731

Query: "O=C(NNc1nc2cc(F)c(F)cc2n2cccc12)c1cnccn1" ?
Response: 7.98

Query: Next up: O=C1Nc2ccccc2/C1=C/c1ccc(COCC2CO2)n1-c1ccc(O)cc1 (configuration not stated)
Response: 98.8

Query: Next: "CC1(C)CC[C@]23CC[C@]4(C)[C@H](CC[C@@H]5[C@@]6(C)CCCN(CO)C(C)(C)[C@@H]6CC[C@]54C)[C@H]2[C@H]1OC3"
Response: 35.4

Query: And the next one, "COc1ccc(C(=O)CSc2nc3c(c(Nc4ccc(S(N)(=O)=O)cc4)n2)CCCC3)cc1" ?
Response: 75.7

Query: Do the same for "CCc1nn2c(C)cc(C)nc2c1Cc1ccc(/C=C/CN2CCN(CCOCCOCCN3CCN(C/C=C/c4ccc(Cc5c(CC)nn6c(C)cc(C)nc56)cc4)CC3)CC2)cc1" please
Response: -17.6

Query: Record: CC1(C)NCCC[C@]2(C)[C@H]3C/C(=N\O)C4[C@@H]5C[C@@](C)(CO)CC[C@]5(C)CC[C@@]4(C)[C@]3(C)CC[C@@H]12 (some centres not stated)
Response: 80.5

Query: Same again, this time with "CC1(C)[C@@H](O)CC[C@]2(C)[C@H]3CC[C@@H]4[C@H]5[C@H](C(=O)/C=C\c6ccccn6)CC[C@]5(O)CC[C@@]4(C)[C@]3(C)CC[C@@H]12"
Response: -8.46

Query: And then "COc1cccc(/C=C(/C)c2ccc3cccc(OC)c3[o+]2)c1O" , what is it?
Response: 92

Query: COc1cc(C2N=C(NNc3ccccc3)NC(C)=C2C(C)=O)ccc1O (configuration not stated) , same question.
Response: 89.9

Query: Could you do the same for CCCn1cnc2c(c1=N)C(c1ccc(F)cc1)c1sc3c(CC)cccc3c1O2 (configuration not stated) , please?
Response: 9.49
